experiment: Volume of distribution at steady state in rat at 1 mg/kg, iv measured upto 24 hrs by LC-MS/MS analysis; assay type: ADME, organism-based; conditions: in vivo, read-out: Vdss
Attribute Measured: Vd

{"Molecule Smiles": "CC1(N)CCN(c2cccnc2NC(=O)c2nc(-c3ncccc3C(F)(F)F)cnc2N)CC1", "Attribute Measured": "Vd", "Reading": "3.4 L/kg"}

----------
molecular target: Protein kinase C delta type (Homo sapiens, UniProt Q05655); assay: Inhibition of PKCdelta (unknown origin)
Sequence (Q05655 whole entry): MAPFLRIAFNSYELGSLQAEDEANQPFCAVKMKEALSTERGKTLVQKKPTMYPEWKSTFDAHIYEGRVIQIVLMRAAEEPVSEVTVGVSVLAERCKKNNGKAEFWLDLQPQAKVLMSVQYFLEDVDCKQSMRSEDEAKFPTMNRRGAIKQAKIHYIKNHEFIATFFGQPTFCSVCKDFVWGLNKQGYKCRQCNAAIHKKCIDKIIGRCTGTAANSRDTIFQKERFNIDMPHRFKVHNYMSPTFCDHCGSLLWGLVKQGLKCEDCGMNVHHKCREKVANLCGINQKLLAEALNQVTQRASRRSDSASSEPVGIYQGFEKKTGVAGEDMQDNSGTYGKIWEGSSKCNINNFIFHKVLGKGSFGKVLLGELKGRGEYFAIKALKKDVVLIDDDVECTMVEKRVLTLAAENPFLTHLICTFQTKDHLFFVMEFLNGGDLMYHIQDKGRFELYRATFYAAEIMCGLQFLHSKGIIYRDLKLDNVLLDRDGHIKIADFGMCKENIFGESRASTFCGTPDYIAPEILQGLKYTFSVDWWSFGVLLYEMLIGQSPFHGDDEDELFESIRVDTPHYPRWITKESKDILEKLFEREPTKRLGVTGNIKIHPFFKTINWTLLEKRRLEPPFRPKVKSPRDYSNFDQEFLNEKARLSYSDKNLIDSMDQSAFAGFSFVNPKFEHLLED
Listing of recorded IC50 by entry.

{"Molecule Smiles": "CC1(N)CCN(c2cccnc2NC(=O)c2nc(-c3ncccc3C(F)(F)F)cnc2N)CC1", "Display Unit": "nM", "IC50": 6.9}
{"Molecule Smiles": "CN1CCN(c2nc(C3=C(c4c[nH]c5ccccc45)C(=O)NC3=O)c3ccccc3n2)CC1", "Display Unit": "nM", "IC50": 6}
